B1: POU domain, class 2, transcription factor 2, residues 200 to 269; numbered along this chain, P09086 (parent)
chain: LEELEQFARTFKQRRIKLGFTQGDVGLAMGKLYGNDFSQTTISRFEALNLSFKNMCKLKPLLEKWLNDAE

# Variants of: B1
# Assay notes: abundance fitness (aPCA) (normalised: wild type 0, dead -1); higher = more abundant; growth selection in yeast, the domain comes from the species named
# Applied conditions: Homo sapiens
Measured parameter: abundance fitness
Field format: numeric only.

Recorded abundance fitness, per entry:
- I16K: -0.021
- A28C: -0.108
- L1D: -0.279
- F37G: -0.28
- A28F: -0.032

abundance fitness in this record for `D68Y` : -0.076
